assayed system: human serum albumin (human) (UniProt P02768)
Sequence (P02768 25-609 limits assumed): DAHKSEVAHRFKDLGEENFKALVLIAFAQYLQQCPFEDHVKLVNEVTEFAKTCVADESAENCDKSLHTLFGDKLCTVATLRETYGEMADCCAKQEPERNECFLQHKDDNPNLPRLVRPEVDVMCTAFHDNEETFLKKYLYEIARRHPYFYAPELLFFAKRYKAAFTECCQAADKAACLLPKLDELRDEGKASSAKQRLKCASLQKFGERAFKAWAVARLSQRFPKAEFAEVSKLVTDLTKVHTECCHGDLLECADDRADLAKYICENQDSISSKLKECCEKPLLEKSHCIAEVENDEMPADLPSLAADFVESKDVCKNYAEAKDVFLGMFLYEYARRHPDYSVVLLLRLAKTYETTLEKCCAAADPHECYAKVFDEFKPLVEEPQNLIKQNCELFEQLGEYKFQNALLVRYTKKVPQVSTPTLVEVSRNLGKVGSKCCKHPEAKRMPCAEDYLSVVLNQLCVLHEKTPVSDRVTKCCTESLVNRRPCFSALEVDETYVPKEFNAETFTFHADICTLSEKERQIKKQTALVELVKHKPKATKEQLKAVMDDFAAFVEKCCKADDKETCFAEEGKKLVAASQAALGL
measurement protocol: ELISA, lysate on plate-bound antigen
Would you please tag the item Condition met when its ELISA HSA (RSU) is 1000 RSU or above, and Condition not met when it is below?

1) ISOP121GR5P1G11 (designed binder, not shown: small tags and cut ends, FN3 domain; E. coli lysate in the ELISA) LPAPKNLVVSRVTEDSARLSWTAPDAAFDSFQINYHEYGQNGEAIQLIVPGSERSYDLTGLKPGTEYGVWIWGVKGGIRSKPLWAFFTT
Condition met
2) ISOP194AR9P1E8 (designed binder, not shown: small tags and cut ends, FN3 domain; E. coli lysate in the ELISA) LPAPKNLVVSRVTEDSARLSWEWLEHFDSFLIQYQESEKVGEAIVLTIPGSERSYDLTGLKPGTEYTVSIYGVYQRKVEFHSNPLSAIFTT
Condition met
3) ISOP121AR5P1A8 (designed binder, not shown: small tags and cut ends, FN3 domain; E. coli lysate in the ELISA) LPAPKNLVVSRVTEDSARLSWGLEWAYQFFDSFLIQYQESEKVGEAIVLTVPGSERSYDLTGLKPGTEYTVSIYGVYLRAIEFYSNPLSAIFTT
Condition met
4) ISOP194ER9P1H9 (designed binder, not shown: small tags and cut ends, FN3 domain; E. coli lysate in the ELISA) LPAPKNLVVSRVTEDSARLSWTAPDAAFDSFRIAYYETMVSGEAIVLTVPGSERSYDLTGPKPGTEYAVIIKGVKGGKPSWPLSAIFTT
Condition not met
5) ISOP121BR5P1G2 (designed binder, not shown: small tags and cut ends, FN3 domain; E. coli lysate in the ELISA) LPAPKNLVVSRVTEDSARLSWADELHHANHFDSFLIQYQESEKVGEAIVLTVPGSERSYDLTGLKPGTEYTVSIYGVYDRHYEIHFYSNPLSAIFTT
Condition not met

-- ask // inclusive: ELISA HSA (RSU) at least 1000 RSU? input: ISOP121BR5P1C6 (designed binder, not shown: small tags and cut ends, FN3 domain; E. coli lysate in the ELISA) LPAPKNLVVSRVTEDSARLSWRKQEQYFDSFLIQYQESEKVGEAIVLTVPGSERSYDLTGLKPGTEYTVSIYGVYSRPKAEFTSNPLSAIFTT
-- reply Condition not met

-- ask // inclusive: ELISA HSA (RSU) at least 1000 RSU? input: ISOP121AR5P1D11 (designed binder, not shown: small tags and cut ends, FN3 domain; E. coli lysate in the ELISA) LPAPKNLVVSRVTEDSARLSWEWLEHFDSFLIQYQESEKVGEAIVLTVPGSERSYDLTGLKPGTEYTVSIYGVYQRKVEFHSNPLSAIFTT
-- reply Condition met

-- ask // inclusive: ELISA HSA (RSU) at least 1000 RSU? input: ISOP121BR5P1A7 (designed binder, not shown: small tags and cut ends, FN3 domain; E. coli lysate in the ELISA) LPAPKNLVVSRVTEDSARLSWTTAFHNEYFDSFLIQYQESEKVGEAIVLTVPGSERSYDLTGLKPGTEYTVSIYGVYSRPKAEFTSNPLSAIFTT
-- reply Condition met

-- ask // inclusive: ELISA HSA (RSU) at least 1000 RSU? input: ISOP121AR5P1F9 (designed binder, not shown: small tags and cut ends, FN3 domain; E. coli lysate in the ELISA) LPAPKNLVVSRVTEDSARLSWGWSELIATHFDSFLIQYQESEKVGEAIVLTVPGSERSYDLTGLKPGTEYTVSIYGVYNRKVNFYSNPLSAIFTT
-- reply Condition met

-- ask // inclusive: ELISA HSA (RSU) at least 1000 RSU? input: ISOP194BR9P1G9 (designed binder, not shown: small tags and cut ends, FN3 domain; E. coli lysate in the ELISA) LPAPKNLVVSRVTEDSARLSWTTAFHNEYFDSFLIQYQESEKVGEAIVLTVPGSERSYDLTGLKPGTEYTVSIYGVYIRVQVLWFSNPLSAIFTT
-- reply Condition not met

-- ask // inclusive: ELISA HSA (RSU) at least 1000 RSU? input: ISOP194ER9P1A11 (designed binder, not shown: small tags and cut ends, FN3 domain; E. coli lysate in the ELISA) LPAPKNLVVSRVTEDSARLSWTAPDAAFDSFRIAYYETMVSGEAIVLTVPGSERSYDLTGLKPGTEYAVIIKGVKGGKPSWPLSAIFTT
-- reply Condition not met

-- ask // inclusive: ELISA HSA (RSU) at least 1000 RSU? input: ISOP121GR5P1F10 (designed binder, not shown: small tags and cut ends, FN3 domain; E. coli lysate in the ELISA) LPAPKNLVVSRVTEDSARLSWTAPDAAFDSFFIDYVERATVGEAIALNVPGSKRSYALTGLKPGTEYFVKIRGVKGGLKSKPLWAWFTT
-- reply Condition not met

-- ask // inclusive: ELISA HSA (RSU) at least 1000 RSU? input: ISOP121GR5P1G7 (designed binder, not shown: small tags and cut ends, FN3 domain; E. coli lysate in the ELISA) LPAPKNLVVSRVTEDSARLSWTAPDAAFDSFHIRYHEYDKNGEAIQLYVPGSERSYDLTGLKPGTEYGVYIHGVKGGGRSKPLWAHFTT
-- reply Condition not met

-- ask // inclusive: ELISA HSA (RSU) at least 1000 RSU? input: ISOP194AR9P1H1 (designed binder, not shown: small tags and cut ends, FN3 domain; E. coli lysate in the ELISA) LPAPKNLVVSRVTEDSARLSWWRVLGHSHFFDSFLIQYQESEKVGEAIVLTVPGSERSYDLTGLKPGTEYTVSIYGVYNRKVNFYSNPLSAIFTT
-- reply Condition met

-- ask // inclusive: ELISA HSA (RSU) at least 1000 RSU? input: ISOP121BR5P1D10 (designed binder, not shown: small tags and cut ends, FN3 domain; E. coli lysate in the ELISA) LPAPKNLVVSRVTEDSARLSWGKKSHFFDSFLIQYQESEKVGEAIVLTVPGSERSYDLTGLKPGTEYTVSIYGVYTRGQCEWESNQLSAIFFTT
-- reply Condition not met

-- ask // inclusive: ELISA HSA (RSU) at least 1000 RSU? input: ISOP194AR9P1F2 (designed binder, not shown: small tags and cut ends, FN3 domain; E. coli lysate in the ELISA) LPAPKNLVISRVTEDSARLSWEWLEHFDSFLIQYQESEKVGEAIVLTVPGSERSYDLTGLKPGTEYTVSIYGVYNRKVNFYSNPLSAIFTT
-- reply Condition met

-- ask // inclusive: ELISA HSA (RSU) at least 1000 RSU? input: ISOP121BR5P1E7 (designed binder, not shown: small tags and cut ends, FN3 domain; E. coli lysate in the ELISA) LPAPKNLVVSRVTEDSARLSWRKQEQYFDSFLIQYQESEKVGEAIVLTVPGSERSYDLTGLKPGTEYTVSIYGVKKWPSTTTTSNPLSAIFTT
-- reply Condition not met

-- ask // inclusive: ELISA HSA (RSU) at least 1000 RSU? input: ISOP194AR9P1C10 (designed binder, not shown: small tags and cut ends, FN3 domain; E. coli lysate in the ELISA) LPAPKNLVVSRVTEDSARPSWEWLEHFDSFLIQYQESEKVGEAIVLTVPGSERSYDLTGLKPGTEYTVSIYGVYNRKVNFYSNPLSAIFTT
-- reply Condition met
